These entries and their values trace back to patent US20130143798A1.

biological target: glucagon receptor (UniProt P47871 26-477, limits assumed); experiment: cell-based or functional assay
Sequence (P47871 26-477 limits assumed): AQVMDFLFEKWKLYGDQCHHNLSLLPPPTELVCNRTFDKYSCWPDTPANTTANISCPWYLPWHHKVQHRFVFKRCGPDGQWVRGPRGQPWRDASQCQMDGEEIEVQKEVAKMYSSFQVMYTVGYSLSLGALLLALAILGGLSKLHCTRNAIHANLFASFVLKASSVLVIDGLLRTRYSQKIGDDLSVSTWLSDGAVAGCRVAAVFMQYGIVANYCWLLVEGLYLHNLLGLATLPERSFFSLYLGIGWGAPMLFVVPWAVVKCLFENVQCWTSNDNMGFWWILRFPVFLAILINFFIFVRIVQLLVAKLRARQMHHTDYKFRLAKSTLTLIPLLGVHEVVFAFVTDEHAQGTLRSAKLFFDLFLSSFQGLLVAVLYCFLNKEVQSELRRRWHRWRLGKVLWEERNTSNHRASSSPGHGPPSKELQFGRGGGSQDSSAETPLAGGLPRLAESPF
Numbered stars: 1 amine (or outer) side, 2 acyl side, 3 side chain; on linkers, the order of the positions; unused ones are H or OH. Side chains are listed from the residue outwards. Ends that are not written are not given here. * marks the point of attachment. C18 diacid = O=C(O)CCCCCCCCCCCCCCCCC(=O)*; γGlu = O=C(O)[C@H](CCC(=O)[*:2])N[*:1]; AEEA = NCCOCCOCC(=O)O
property.label: Assay (I) Glucagon [EC50] (pM)

HSQGTFTSDYSKYLDSRRAQDFVQWLLNK([γGlu-γGlu-AEEA-AEEA-γGlu-C18 diacid]) ... 95

1. HSQGTFTSDYSKYLDSRRAQDFVQK([γGlu-γGlu-AEEA-AEEA-γGlu-C18 diacid])LLNT
2. HSQGTFTSDYSKYLDSRRAQDFVQWLLK([γGlu-γGlu-AEEA-AEEA-γGlu-C18 diacid])TP
Inquiry: Please compare: 1 and 2 . Report which one has the smaller Assay (I) Glucagon [EC50] value. Kindly give the label for the entry you pick.
Reply text: 2
